B1: PhoQ; a variant is named by its letters at X, in order, P23837 (parent)
chain: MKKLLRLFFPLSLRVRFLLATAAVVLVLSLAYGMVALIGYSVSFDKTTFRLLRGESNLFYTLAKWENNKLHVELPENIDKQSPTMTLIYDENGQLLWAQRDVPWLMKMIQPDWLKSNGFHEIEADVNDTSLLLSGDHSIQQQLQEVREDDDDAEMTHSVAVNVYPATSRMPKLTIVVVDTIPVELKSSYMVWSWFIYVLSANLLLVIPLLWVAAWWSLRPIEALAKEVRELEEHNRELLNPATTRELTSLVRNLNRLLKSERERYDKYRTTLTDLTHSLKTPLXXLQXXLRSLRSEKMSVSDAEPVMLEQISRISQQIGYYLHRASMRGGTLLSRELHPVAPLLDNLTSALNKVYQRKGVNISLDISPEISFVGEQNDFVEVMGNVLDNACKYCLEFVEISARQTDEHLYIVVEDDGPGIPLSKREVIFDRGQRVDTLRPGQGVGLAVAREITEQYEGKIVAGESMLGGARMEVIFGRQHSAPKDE

Variants of: B1
Test: enrichment ratio after two sorts for PhoP signalling (ratio (wild type AVST 3.29)); higher = more functional
Details: with PhoP (E. coli)
In all, about 140,000 sequences were measured (“enrichment ratio after two sorts for PhoP signalling”: median about 0, highest 2% from about 11 on). The full list was thinned out, with the highest values kept by preference.
endpoint_label: enrichment ratio

# annotated cases, reported enrichment ratio shown
GHKH	≤ 0.25
ACMQ	31.7
QILH	≤ 0.25

So what's the measured enrichment ratio for this one? `TPGQ` 16

And then `TDAQ` , what is it? 13.4

Then what about the variant `SEHG` ? ≤ 0.25
